Molecular target: LNX1_2, Q8TBB1
Sequence (Q8TBB1 371-470): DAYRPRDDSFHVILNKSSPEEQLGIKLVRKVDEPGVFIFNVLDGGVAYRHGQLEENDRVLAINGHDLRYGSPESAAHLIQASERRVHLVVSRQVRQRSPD
Assay: holdup assay
Set-up: key: below the threshold = too weak to quantify, mostly under pKd 3.1 to 4
Details: plain residues with an end cap or a label only (N-terminal biotin on a linker: ado-ado)

Binder: TKEIPNCTSV [SORCS3, Q9UPU3]
pKd: 3.78

Binder: QLKSGRDSTV [TMEM178A, Q8NBL3]
pKd: 3.84

Binder: RDYTQSSSSL [GRM5, P41594]
pKd: below the threshold

Binder: QKNKDREYYV [NRXN3, Q9HDB5]
pKd: 4.08

Binder: PKSNSSKEYV [CLDN7, O95471]
pKd: below the threshold

Binder: RGKNRRQSIF [CDK18, Q07002]
pKd: below the threshold

Binder: KSRPENGTVC [TMEM178B, H3BS89]
pKd: 4.05

Binder: WAKEKQHTRL [SLC17A1, Q14916]
pKd: below the threshold

Binder: MLPANYVEAI [NEB, P20929]
pKd: below the threshold

Binder: ADEMICITTL [CACNA1D, Q01668]
pKd: below the threshold

Binder: FLVTEFNVML [DFNB31, Q9P202]
pKd: below the threshold

Binder: KKTPVSRSHL [SLC22A3, O75751]
pKd: below the threshold

Binder: KLQNPNQSVV [TYRP1, P17643]
pKd: below the threshold
